target: KRAS(G12D)/SOS1 (Homo sapiens, UniProt P01116, G12D); assay: KRAS(G12D)/SOS1 homogeneous time-resolved fluorescence (HTRF) assay; details: absence of GTP, 4° C. for 3 hr
Sequence (P01116 1-188 isoform P01116-2 G12D): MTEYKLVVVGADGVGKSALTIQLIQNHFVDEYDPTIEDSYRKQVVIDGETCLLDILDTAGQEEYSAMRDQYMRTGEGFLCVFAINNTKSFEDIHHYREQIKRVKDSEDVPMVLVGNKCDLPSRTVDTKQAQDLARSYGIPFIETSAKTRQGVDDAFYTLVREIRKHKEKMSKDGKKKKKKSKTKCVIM
pIC50: −log10 of the molar value. Where a name gives a salt, the structure may show the parent alone.
Overview of reported pIC50 across a group of compounds:
Quantity Measured: pIC50

{"columns": ["Compound", "Quantity Measured", "Result"],
 "data": [
  ["CN1C[C@@H](N2CCC(C(=O)NCCOc3ccc4c(c3)C(=O)N(C3CCC(=O)NC3=O)C4=O)CC2)C[C@H]1COc1nc(N2CC3CCC(C2)N3)c2cnc(-c3cccc4cccc(Cl)c34)c(F)c2n1 (stereo partly drawn) [Compound 12, hydrochloride]", "pIC50", "6.00 to 7.00"],
  ["CN1C[C@@H](N2CCC(C(=O)NCCOCCOc3ccc4c(c3)C(=O)N(C3CCC(=O)NC3=O)C4=O)CC2)C[C@H]1COc1nc(N2CC3CCC(C2)N3)c2cnc(-c3cccc4ccccc34)c(F)c2n1 (stereo partly drawn) [Compound 21, formate]", "pIC50", "6.00 to 7.00"],
  ["C#Cc1c(F)ccc2cc(O)cc(-c3ncc4c(N5CC6CCC(C5)N6C(=O)C(F)(F)F)nc(OCC5(CN6CCN(CC7CCN(c8ccc9c(c8)CN(C8CCC(=O)NC8=O)C9=O)CC7)CC6)CC5)nc4c3F)c12 (stereo not drawn) [Compound 108]", "pIC50", "> 7.00"],
  ["O=C1CCC(N2C(=O)c3ccc(N4CCN(C(=O)C5CCN(CC6(COc7nc(N8CC9CCC(C8)N9)c8cnc(-c9cc(O)cc%10ccccc9%10)c(F)c8n7)CC6)CC5)CC4)cc3C2=O)C(=O)N1 (stereo not drawn) [Compound 76]", "pIC50", "> 7.00"],
  ["CN1C[C@H](N2CCN(Cc3ccc4c(c3)C(=O)N(C3CCC(=O)NC3=O)C4=O)CC2)C[C@@H]1COc1nc(N2CC3CCC(C2)N3)c2cnc(-c3cc(O)cc4ccccc34)c(F)c2n1 (stereo partly drawn) [Compound 36]", "pIC50", "> 7.00"],
  ["C#Cc1cccc2cccc(-c3ncc4c(N5CC6CCC(C5)N6)nc(OC[C@H]5CC[C@@H](CN6CCN(CCC7CCN(c8ccc9c(c8)C(=O)N(C8CCC(=O)NC8=O)C9=O)CC7)CC6)N5C)nc4c3F)c12 (stereo partly drawn) [Compound 62]", "pIC50", "> 7.00"]
]}

###

tested on: A-427 human lung carcinoma; test: CellTiter-Glo cancer cell line proliferation assay, A-427; format: cell-based; conditions: Homo sapiens, A-427, 24 hr, read-out: A427 at 24 hrs, IC50
Where a name gives a salt, the structure may show the parent alone.
Overview of reported IC50 across a group of molecules:
Quantity Measured: IC50

{"columns": ["Molecule", "Quantity Measured", "Result"],
 "data": [
  ["C#Cc1cccc2cccc(-c3ncc4c(N5CC6CCC(C5)N6)nc(OC[C@@H]5C[C@H](N6CCN(C(=O)C7CCN(c8ccc9c(c8)C(=O)N(C8CCC(=O)NC8=O)C9=O)CC7)CC6)CN5C)nc4c3F)c12 (some centres unmarked) [Compound 8, hydrochloride]", "IC50", "> 1000 nM"],
  ["C#Cc1cccc2cccc(-c3ncc4c(N5CC6CCC(C5)N6)nc(OCC5(CN6CCN(Cc7ccc8c(c7)C(=O)N(C7CCC(=O)NC7=O)C8=O)CC6)CC5)nc4c3F)c12 (centres unmarked) [Compound 28, formate]", "IC50", "> 1000 nM"],
  ["C#Cc1cccc2cccc(-c3ncc4c(N5CC6CCC(C5)N6)nc(OC[C@H]5CC[C@@H](CN6CCN(CC7CCN(c8cc9c(cc8F)C(=O)N(C8CCC(=O)NC8=O)C9=O)CC7)CC6)N5C)nc4c3F)c12 (some centres unmarked)", "IC50", "> 1000 nM"],
  ["CN1C[C@H](N2CCN(CC3CCN(c4cccc5c4C(=O)N(C4CCC(=O)NC4=O)C5=O)CC3)CC2)C[C@@H]1COc1nc(N2CC3CCC(C2)N3)c2cnc(-c3cc(O)cc4ccccc34)c(F)c2n1 (some centres unmarked)", "IC50", "> 1000 nM"],
  ["C#Cc1cccc2cccc(-c3ncc4c(N5CC6CCC(C5)N6)nc(OCC5(CN(C)CC6CCN(c7ccc8c(c7)C(=O)N(C7CCC(=O)NC7=O)C8=O)CC6)CC5)nc4c3F)c12 (centres unmarked)", "IC50", "100 to 1000 nM"]
]}
